Quick reference: Count of the listed items.
- System: Human Myelin PLP
- assay_method_text: Phage display library screening (Example 2, Python script analysis), binding to Human Myelin PLP
- measurement_parameters: combined unique sequence count, Python/R script analysis

Solved entries (count: 3):
{"columns": ["substance", "recorded_metric", "result"],
 "data": [
  ["EKPSWTR (R3 Myelin PLP-binding peptide)", "Count", 33],
  ["HQGSRTY (R3 Myelin PLP-binding peptide)", "Count", 53],
  ["VSSQEQA (Myelin PLP-binding peptide)", "Count", 34]
]}

Ask: Request - read-out Count | tested on Human Myelin PLP | substance KPSASIY (Myelin PLP-binding peptide)
Reply: 26

Ask: Give Count (Human Myelin PLP) of the following substance: WSPHGYK (Myelin PLP-binding peptide)
Reply: 27

Ask: Any idea what Count came out for NDASTVS (Myelin PLP-binding peptide) on Human Myelin PLP?
Reply: 28

Ask: Lab note: need Count with Human Myelin PLP for entry TGISSTP (Myelin PLP-binding peptide) , please look it up.
Reply: 27

---

- assay_system: Human Myelin Basic Protein (Homo sapiens)
- Sequence (P02686 135-304 limits assumed): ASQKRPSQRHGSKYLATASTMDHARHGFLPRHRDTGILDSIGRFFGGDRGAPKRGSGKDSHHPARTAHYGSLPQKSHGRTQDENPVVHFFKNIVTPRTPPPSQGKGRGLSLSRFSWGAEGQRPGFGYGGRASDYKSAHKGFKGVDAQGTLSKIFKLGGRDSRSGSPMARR
- assay_method_text: phage display, NGS count
recorded_metric: Count
The answer should be written as a number, with no unit following it.

{"columns": ["substance", "assay_system", "Count"],
 "data": [
  ["DVRIWTL (peptide)", "Human Myelin Basic Protein (Homo sapiens)", 6],
  ["HFTFFPI (peptide)", "Human Myelin Basic Protein (Homo sapiens)", 6],
  ["TPGRATL (peptide)", "Human Myelin Basic Protein (Homo sapiens)", 6],
  ["FQLSYET (peptide)", "Human Myelin Basic Protein (Homo sapiens)", 6],
  ["SSGMLSK (peptide)", "Human Myelin Basic Protein (Homo sapiens)", 7]
]}

Ask: What does the record list as Count for HFLRPSD (peptide) ?
Reply: 7

Ask: Name the reported Count value associated with the substance GPITHAI (peptide)
Reply: 7

Ask: Please report the recorded Count for TSPPLAH (peptide) .
Reply: 8

Ask: Name the reported Count value associated with the substance KIITTKS (peptide)
Reply: 6

Ask: // lookup Count for HQMRTML (peptide)
Reply: 6

Ask: Name the reported Count value associated with the substance KNSIAPR (peptide)
Reply: 8

Ask: Given the substance ETHYKIA (peptide) , what is its reported Count?
Reply: 6

Ask: Tell me the measured Count of KGQPLFR (peptide) , please.
Reply: 7

Ask: // query Count value for entry SAVLMPP (peptide)
Reply: 6

---

- assay_system: Human Myelin PLP (human)
- assay_method_text: phage display R3, NGS count
Everything with Count lower than 50 is no; everything else, including exactly 50, is yes.

{"columns": ["substance", "classification"],
 "data": [
  ["HQGSRTY (peptide)", "yes"],
  ["NPSHHPR (peptide)", "no"],
  ["GPFLFTV (peptide)", "no"],
  ["YPKLWTY (peptide)", "no"],
  ["RFELPAP (peptide)", "yes"]
]}

Proceed to the following item.
Ask: Hello, I need to know if LRFQIPP (peptide) has measured Count not below 50. Thanks!
Reply: no
